# run.description: RAM signaling pathway blockade in yeast – S. cerevisiae, Pdr1DBD-CYC8 efflux-inhibited sensitized strain, primary screen (AID 1298);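 also: 0% = DMSO untreated cells without growth and 100% = 10 µM 1-NA-PP1 full growth; higher means more yeast growth rescued from 5-FOA killing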
# run.conditions: S. cerevisiae cbk1-as DSE1-URA3 strain, 5-FOA growth OD615, 2 d; at 50 µM; stronger effect = higher value
Reported RAM network inhibition is given for each of the following molecules.
measured.parameter: RAM network inhibition (%)

molecule	u	result
Cc1c(-c2ccco2)[n+](=O)c2c(n1[O-])CCCCC2	%	8.4
CCOC(=O)C(C(=O)Nc1cccc(C)n1)C1CCCCC1 (stereo not drawn)	%	2.72
Cn1c(C(=O)N2CCN(c3ncccn3)CC2)cc2c(=O)n(C)c3ccccc3c21	%	-0.01
CCOc1ccc(C(=O)Nc2c3c(nn2-c2ccc(C)cc2)CS(=O)C3)cc1OCC (stereo not drawn)	%	8.77
Cc1ccc(OCCCC(=O)Nc2nncs2)cc1	%	1.98
COCCn1c(=O)[nH]c2cc(C(=O)NCC3CCCO3)ccc2c1=O (stereo not drawn)	%	1.45
COc1ccccc1S(=O)(=O)Cc1ccc(C(=O)NCc2ccc3c(c2)OCO3)o1	%	6.73
CCOc1ccc(N(CC(=O)Nc2ccc(OC)cc2)S(=O)(=O)c2c(C)noc2C)cc1	%	4.12
O=C(NCCc1ccc(S(=O)(=O)N2CCCC2)cc1)c1cccs1	%	6.32
CCOC(=O)c1cc2c(=O)n3ccccc3nc2n(CCOC)c1=NC(=O)c1ccncc1	%	5.99
CCCCNC(=O)Nc1cc(C(=O)OC)ccc1C	%	7.5
CCCc1[nH]nc2c1C(C1CC=CCC1)C(C#N)=C(N)O2 (stereo not drawn)	%	1.22
CCCOc1ccc(C(=O)Nc2cc(-c3nn4c(C)nnc4s3)ccc2C)cc1	%	3.75
O=C(O)CC1Sc2ccccc2NC1=O (stereo not drawn)	%	4.47
CC1Cc2ccccc2N1C(=O)c1ccc2snnc2c1 (stereo not drawn)	%	6.74
O=C(CCCOc1ccccc1)N1CCCc2ccccc21	%	2.37
NC(=O)C1CCN(C(=O)C2CCN(S(=O)(=O)c3ccccc3)CC2)CC1	%	0.84
CC1=CC(C)(C)Nc2ccc(OC(=O)c3ccco3)cc21	%	0.98
Cc1ccc(C2CC(c3cccc(C)c3)n3nc(N)nc3N2)cc1 (stereo not drawn)	%	1.43
O=C(CSc1nc2c(c(=O)n1-c1ccc(Cl)cc1)SCC2)Nc1ccc2c(c1)OCCO2	%	4.16
CC(C)(C)OC(=O)N1CCC(C(N)=O)CC1	%	0.06
CCOc1ccc(NC(=O)CN2C(=O)COc3ccc(Cl)cc32)cc1	%	6.61
COc1ccc2c(c1)[nH]c1c(N3CCN(Cc4ccc5c(c4)OCO5)CC3)ncnc12	%	5.66

* * *

# run.description: SK-BR-3 cell growth inhibitors, pilot screen, 24 h, human (AID 572);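 also: compound exposure lasted between 18 and 24 h rather than exactly 24 h; 100% = carrier-treated control wells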
# run.conditions: SK-BR-3 viability, CellTiter-Glo luminescence, at 10 µM, stronger effect = lower value
Peptide text beside a SMILES is read from it. * marks the point of attachment. Boc = CC(C)(C)OC(=O)*
measured.parameter: viability (%)

compound	u	result
CC(=O)Nc1ccc(OC(=O)c2cccnc2)cc1	%	111
Cc1cnc(C(=O)Nc2ccc(N3CCOCC3)cc2)cn1	%	95
CCOC(=O)c1cccc(NC(=O)CSc2nc3ccccc3c(=O)n2CC)c1	%	87
CCCCOc1ccc(CC(=O)NO)cc1	%	122
CC(C)[C@H](NC(=O)[C@@H]1CSCN1C(=O)OC(C)(C)C)C(=O)NCC1CCC(C(=O)O)CC1 (stereo partly drawn)	%	105
CC1(C)OC(=O)C(=CNc2ccccc2)C(=O)O1	%	98
COc1ccccc1OCC(O)COC(N)=O (stereo not drawn)	%	93.5
Cn1c(=O)c2c(nc(Br)n2CCSc2ncccn2)n(C)c1=O	%	98
Cc1c(C(=O)O)sc2ncn(C)c(=O)c12	%	106
CS(=O)(=O)N1CCN(c2ccccc2NC(=O)c2cccs2)CC1	%	99.5
COc1cc(N2C(=O)CSC23C(=O)Nc2ccccc23)cc(OC)c1OC (stereo not drawn)	%	95.5
COCCn1c(SCc2csc(-c3ccccc3)n2)nc2ccccc21	%	94
CCOC(=O)C1CCN(c2c(N(C)Cc3ccco3)c(=O)c2=O)CC1	%	78
C=C(c1cccc2ccccc12)P(=O)(O)O	%	116
COc1ccc(-c2onc(C)c2-c2ccccc2)c(O)c1	%	99.5
CCOC(=O)C1CCCN(C(=O)c2ccc3c(=O)n(CCOC)c(=S)[nH]c3c2)C1 (stereo not drawn)	%	94
O=C(CCS(=O)(=O)c1cccc2nsnc12)N1CCN(Cc2ccc3c(c2)OCO3)CC1	%	90.5
COc1cc(C(=O)OCC(=O)N(C)Cc2ccccc2)cc(OC)c1OC	%	106
CCn1cc(C(=O)O)c(=O)c2cnc(N3CCNCC3)nc21	%	108
CC1=CCC(C(C)(C)NC(=O)c2ccccc2)C/C1=N\O (stereo not drawn)	%	104
CC(C)(C)OC(=O)N1CCCC1C(=O)NC(Cc1ccccc1)C(=O)O (stereo not drawn) (Boc-Pro-Phe-OH; configuration not given here)	%	116
COC(=O)CSc1cc(C)nc(NC(C)=O)n1	%	93.5
Cc1cccc2cc(CN(CC3CCCO3)C(=O)c3cnccn3)c(=O)[nH]c12 (stereo not drawn)	%	116

Taken from PubChem BioAssay.
